- assayed.system: D-CGRP (biotinylated, all-D alpha-calcitonin gene-related peptide) (Rattus norvegicus) (UniProt P01256)
- Sequence: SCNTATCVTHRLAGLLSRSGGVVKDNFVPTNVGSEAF
- assay.text: pulldown
- experimental.context: 2'-F pyrimidines, bead assay, 37 C, unit uM, probably nM
quantity.name: Kd (µM)
Numbers only, in µM.

response.value for GGAGCUCAGCCUUCACUGCAGUGACGCACGUAUGAUAGUUUCCAUUUUGGACUCCUGGGCACCACGGUCGGAUCCAC [clone 732] (field: Kd) = 23

###

- assayed.system: D-CGRP (biotinylated, all-D alpha-calcitonin gene-related peptide) (Rattus norvegicus) (UniProt P01256)
- Sequence: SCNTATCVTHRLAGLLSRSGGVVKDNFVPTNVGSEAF
- assay.text: SPR
- experimental.context: 2'-F pyrimidines; clone shortened by two nucleotides; Biacore and ITC; higher by factor two at 37 C
quantity.name: Kd
# output: numeric value plus its unit

response.value for GGAGCUCAGCCUUCACUGCAGUGACGCACGUAUGAUAGUUUCCAUUUUGGACUCCUGGGCACCACGGUCGGAUCCAC [clone 732] (field: Kd) = 10000 nM
